B1: glmS ribozyme (parent)
chain: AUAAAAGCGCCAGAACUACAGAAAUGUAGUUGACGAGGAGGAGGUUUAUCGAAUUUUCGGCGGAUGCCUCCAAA

variants of: B1; test: self-cleavage kobs at 160 uM GlcN6P; higher = faster cleavage; RNA array; details: with glucosamine-6-phosphate
Variants at the floor of the assay were thinned out.
# if value of self-cleavage kobs at 160 uM GlcN6P reaches 0.0007 s⁻¹, tag TRUE; if it stays below, tag FALSE

Request: # check: self-cleavage kobs at 160 uM GlcN6P of A12C G29U is greater than or equal to 0.0007 s⁻¹
Response: TRUE

Request: Next variant up: U55C U57G
Response: FALSE

Request: Next variant up: G40A C61U
Response: FALSE

Request: Next variant up: G44U C67A
Response: TRUE

Request: Next variant up: A36C G37A U46A G66U
Response: FALSE

Request: Next variant up: G7U G35A
Response: FALSE

Request: Next variant up: A53G U54C
Response: TRUE

Request: Next variant up: G43C U55A
Response: FALSE

Request: Next variant up: C16A U54G
Response: FALSE

Request: Next variant up: G60U C70A
Response: FALSE

Request: Next variant up: G32A A53U
Response: FALSE
